Biological target: Prostaglandin G/H synthase 2 (Ovis aries, UniProt P79208)
Sequence (P79208 whole entry): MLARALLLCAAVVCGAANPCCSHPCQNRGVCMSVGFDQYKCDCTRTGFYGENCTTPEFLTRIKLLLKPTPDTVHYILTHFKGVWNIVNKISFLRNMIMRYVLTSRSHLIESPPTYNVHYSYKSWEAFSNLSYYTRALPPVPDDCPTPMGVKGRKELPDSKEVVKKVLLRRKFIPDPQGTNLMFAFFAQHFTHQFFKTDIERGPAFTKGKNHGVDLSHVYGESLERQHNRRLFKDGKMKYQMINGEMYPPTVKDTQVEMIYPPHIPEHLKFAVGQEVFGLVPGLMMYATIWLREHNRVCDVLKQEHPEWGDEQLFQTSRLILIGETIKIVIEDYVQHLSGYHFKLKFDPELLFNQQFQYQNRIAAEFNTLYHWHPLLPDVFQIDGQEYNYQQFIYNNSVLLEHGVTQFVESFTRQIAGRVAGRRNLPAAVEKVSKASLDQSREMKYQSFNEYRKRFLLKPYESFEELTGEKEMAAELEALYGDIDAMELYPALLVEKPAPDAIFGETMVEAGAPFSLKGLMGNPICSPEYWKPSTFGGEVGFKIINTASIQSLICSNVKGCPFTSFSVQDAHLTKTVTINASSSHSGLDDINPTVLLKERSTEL
Assay: Inhibition of recombinant ovine COX2 using arachidonic acid as substrate preincubated for 15 mins followed by arachidonic acid addition measured after 2 mins by ELISA
READOUT KIND: pIC50
// pIC50 is dimensionless: -log10 of concentration (M)

Sample records with pIC50:
COMPOUND	pIC50
C[C@@H]1O[C@@H](O[C@@H]2[C@@H](O[C@@H]3OC[C@](O)(CO)[C@H]3O)[C@H](OCCc3ccc(O)c(O)c3)O[C@H](CO)[C@H]2OC(=O)/C=C/c2ccc(O)c(O)c2)[C@H](O)[C@H](O)[C@H]1O	4.74
C[C@@H]1O[C@@H](O[C@@H]2[C@@H](O)[C@H](OCCc3ccc(O)c(O)c3)O[C@H](CO)[C@H]2OC(=O)/C=C/c2ccc(O)c(O)c2)[C@H](O)[C@H](O)[C@H]1O [ACETOSIDE]	4.95
C[C@@H]1O[C@@H](O[C@@H]2[C@@H](O)[C@H](OCCc3ccc(O)c(O)c3)O[C@H](CO)[C@H]2OC(=O)/C=C/c2ccc(O)c(O)c2)[C@H](O)[C@H](O[C@@H]2OC[C@](O)(CO)[C@H]2O)[C@H]1O	4.67

Report pIC50 for CC(=O)OC[C@H]1O[C@@H](OCCc2ccc(O)c(O)c2)[C@H](O[C@@H]2OC[C@](O)(CO)[C@H]2O)[C@@H](O[C@@H]2O[C@@H](C)[C@H](O)[C@@H](O)[C@H]2O)[C@@H]1OC(=O)/C=C/c1ccc(O)c(O)c1
4.80

The origin of these recorded values is ChEMBL document CHEMBL4406802.
